target: HIV-1 SF162 Env (HIV-1 strain SF162, UniProt P19550 32-847); assay: cell-based or functional assay
MEASUREMENT TYPE: IC50 neutralization, 1 hour virus/Ab incubation

1496_C09 (PG9) (TCN-109) (antibody, V domains shown) VH: QRLVESGGGVVQPGSSLRLSCAASGFDFSRQGMHWVRQAPGQGLEWVAFIKYDGSEKYHADSVWGRLSISRDNSKDTLYLQMNSLRVEDTATYFCVREAGGPDYRNGYNYYDFYDGYYNYHYMDVWGKGTTVTVSS VL: QSALTQPASVSGSPGQSITISCNGTSNDVGGYESVSWYQQHPGKAPKVVIYDVSKRPSGVSNRFSGSKSGNTASLTISGLQAEDEGDYYCKSLTSTRRRVFGTGTKLTVLG: > 50 µg/mL
